Assay: reversal of MRP1-mediated doxorubicin resistance, pilot screen, H69AR cells, doxorubicin co-treatment (AID 601)
Settings: H69AR cells + 2 uM doxorubicin, CellTiter-Glo, 72 h; measured here: viability with 2 uM doxorubicin; at 10 µM; stronger effect = lower value
Please use yes (1) for viability under 90% and no (0) for everything else, ties included.

• c1ccc(-n2nnnc2OCCOc2nnnn2-c2ccccc2)cc1 = yes (1)
• CC1(C)CC(=O)c2cnc(NCc3ccco3)nc2C1 = yes (1)
• CCC(=O)O[C@@H]1CC(=O)O[C@H](C)CC=CC=C[C@@H](O)[C@H](C)C[C@H](CC=O)[C@H](O[C@H]2O[C@H](C)[C@@H](O[C@H]3C[C@@](C)(O)[C@@H](OC(=O)CC)[C@H](C)O3)[C@H](N(C)C)[C@H]2O)[C@H]1OC = no (0)
• COCCNC(=O)CSc1nc(-c2ccc(OC)c(OC)c2)cc(C(F)(F)F)n1 = no (0)
• COc1ccc(NC(=O)CCS(=O)(=O)c2ccc(OC)cc2)cc1 = no (0)
• COc1cc(Cl)c(C)cc1NC(=O)COC(=O)c1cnc(C)cn1 = no (0)

###

Assay: growth suppression of PTEN-deleted HCT116, pilot screen, cell-based, HCT116 clonal line, CellTiter-Glo (AID 824);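 further: 0% = 20 µM Hyamine control and 100% = vehicle cell control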
Settings: 60 h, at 10 µM, stronger effect = lower value
Records with an inconclusive call do not appear.
viability strictly less than 90% = yes (1). Otherwise no (0).

• CSc1nnc(NC(=O)C2CCCCC2)s1 = no (0)
• Cc1ccnc(Nc2nc3ccccc3o2)n1 = yes (1)
• CCOC(=O)CN1CC23C=CC(O2)C(C(=O)NCc2ccc(C)cc2)C3C1=O (stereo not drawn) = no (0)
• CC(=O)Nc1ccc(S(=O)(=O)NCCc2cc3c(C)ccc(C)c3[nH]c2=O)cc1 = no (0)
• CCOC(=O)c1c(C)n(C)c2ccc(OCC(O)CN3CCCCCC3)cc12 (stereo not drawn) = yes (1)
• CC1(C)CC(=O)C=C(Nc2ccccc2F)C1 = no (0)
• CCN(CC)S(=O)(=O)c1ccc2c3c(cccc13)C(=O)N2 = no (0)

###

Assay: growth suppression of beta-catenin knockout HCT116, pilot screen, human colon tumor cells (AID 823);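 further: 0% = wells killed by 20 µM Hyamine and 100% = untreated DMSO cell wells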
Conditions: CellTiter-Glo, 60 h, at 10 µM, stronger effect = lower value
Records with an inconclusive call do not appear.
parameter measured: viability (%)

- Clc1cccc(CSc2nnc([C@@H]3CCCN3)o2)c1: 98.9
- CC(=O)Nc1ccc(S(=O)(=O)N2CCC(c3nc4ccc(C)cc4[nH]3)CC2)cc1: 51.2
- C=C(C)Cn1c(CNC(C)=O)nc2ccccc21: 108
- Cc1ccc2c(c1)NC(=O)C(CC(=O)O)O2 (stereo not given): 103
- Cc1ccc(/C=c2/sc3nnc(-c4ccccc4Cl)n3c2=O)o1: 90.9

###

Assay: reversal of MRP1-mediated doxorubicin resistance, pilot screen, H69AR cells, doxorubicin co-treatment (AID 601)
Details: H69AR cells + 2 uM doxorubicin, CellTiter-Glo, 72 h; measured here: viability with 2 uM doxorubicin; at 10 µM; stronger effect = lower value
parameter measured: viability (%)

- Cc1ccc(CS(=O)(=O)CCC(=O)NCC2CCCO2)cc1 (stereo not given): 90.7
- O=C(NCCC1=CCCCC1)C1CC(=O)N(C2CCCCCC2)C1 (stereo not given): 88.5
- O=C(COC(=O)C1=COCCO1)Nc1ccccc1Oc1ccccc1: 88.3
- CCn1nnc(NC(=O)c2cc3ccccc3o2)n1: 90
- COC(=O)c1[nH]c2cc(OC)ccc2c1NC(=O)CN1CCOCC1: 91.3

###

Measured viability, listed per entry for reference.
Assay: growth suppression of beta-catenin knockout HCT116, pilot screen, human colon tumor cells (AID 823);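 further: 0% = wells killed by 20 µM Hyamine and 100% = untreated DMSO cell wells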
Conditions: CellTiter-Glo, 60 h, at 10 µM, stronger effect = lower value
Records with an inconclusive call do not appear.
parameter measured: viability (%)

- Oc1ccc(-c2nc3cnccn3c2Nc2ccc3c(c2)OCCO3)cc1: 83.7
- CN(C)CCCNC(=O)CC(c1ccc(F)cc1)c1ccco1 (stereo not drawn): 77.9
- CCCn1cc(S(=O)(=O)CC(=O)Nc2ccc(OCC)cc2)c2ccccc21: 84.7
- OCCNc1nc(Nc2ccccc2)nc(Nc2ccccc2)n1: 95.8
- CC(C)(C)SCCNS(=O)(=O)c1ccccc1: 99.8
- CCOc1ccc(C2CC(=O)NC(SC)=C2C#N)cc1 (stereo not drawn): 104
- COC(=O)C1C(=O)C=C(N2CCOCC2)CC1(C)C (stereo not drawn): 96.4
- COCCN1C=C(C(=O)OC)C(c2cc(Br)c(OC)c(OC)c2)C(C(=O)OC)=C1: 80.8
- Cc1ccc(Nc2nc(C3CC3)cs2)cc1: 92.5
- CCC(=O)NCCn1c(C)cc2ccccc21: 104
- CCN(CC)S(=O)(=O)c1ccc(NC(=O)Cn2c(=O)oc3ccccc32)cc1: 96.7
- c1cncc(CNc2c3c(nc4nnnn24)CCCC3)c1: 90
- CCSCCOC(=O)C1=C(C)NC(=O)NC1c1ccc2c(c1)OCO2 (stereo not drawn): 94.3
- O=C(c1cc(-c2ccc(O)cc2)on1)N1CCc2ccccc2C1: 93
- CC(=O)c1c(Nc2ccc3c(c2)OCCO3)oc(C)cc1=O: 110
- CCc1noc2c1/C(=N\O)CC(c1ccccc1)C2 (stereo not drawn): 83.3
- CCCCN1C(=O)C2C(c3ccc(OC)cc3O)NC(CC(C)C)(C(=O)O)C2C1=O (stereo not drawn): 97.7
- CCOc1cc(/C=N/O)cc(Br)c1OC: 106

###

A collection of compounds and their measured viability
Experiment: reversal of MRP1-mediated doxorubicin resistance, pilot screen, H69AR cells, doxorubicin co-treatment (AID 601)
Conditions: H69AR cells, CellTiter-Glo, 72 h; compound alone cytotoxicity; at 10 µM
parameter measured: viability (%)

* CCn1nnc(NC(=O)c2cc3ccccc3o2)n1 | 101
* CCOCCCNC(=O)C1CCC(=O)N1CCc1ccccc1 (stereo unspecified) | 98.3
* Cc1onc(-c2ccccc2)c1C(=O)Nc1ccc(S(=O)(=O)N2CCCCC2)cc1 | 88.9
* Cc1occc1-c1nnc(SCC(=O)NCC2CCCO2)n1C (stereo unspecified) | 96.6
* COc1cccc(-c2cc(C(F)(F)F)n3ncc(C(=O)O)c3n2)c1 | 108
* Cc1cn([C@H]2C[C@H](N=[N+]=[N-])[C@@H](CO)O2)c(=O)[nH]c1=O | 96.5
* O=C(COC(=O)C1CC1)c1c[nH]c2ccccc12 | 115
* Cn1c2c(c(=O)n(C)c1=O)C(c1cccc(Br)c1)C1C(=O)c3ccccc3C1=N2 (stereo unspecified) | 40.6
* CCn1c(C(=O)N2CCC(C(=O)NCc3ccc4c(c3)OCO4)CC2)cc2sccc21 | 89.6
* Cn1c(=O)c2c(nc(CN3CCCCC3)n2CCc2ccccc2)n(C)c1=O | 91.9
* NC(=O)NC(c1ccccc1)c1ccccc1F (stereo unspecified) | 105
* CCCCSc1cc(C)nc2ncnn12 | 99.7
* Cc1ccc(-c2[nH]nc3c2C(c2ccc(OC(=O)N4CCOCC4)cc2)C(C#N)=C(N)O3)cc1 (stereo unspecified) | 85.5
* CC(=O)NS(=O)(=O)c1ccc(N)cc1 | 102
* O=C1OC2(c3ccccc3)C3CCCC2C13 | 100
* Cc1ccc(-c2nc(=S)c3c(n2Cc2ccco2)CCCC3)cc1 | 10.3

###

Assay: reversal of MRP1-mediated doxorubicin resistance, pilot screen, H69AR cells, doxorubicin co-treatment (AID 601)
Conditions: H69AR cells + 2 uM doxorubicin, CellTiter-Glo, 72 h; at 10 µM; stronger effect = higher value
As shown below, each of these compounds has a reported differential viability (reversal) value.
parameter measured: differential viability (reversal) (%)

- Cc1ccc(-n2nnnc2SCC(=O)Nc2c(C)n(C)n(-c3ccccc3)c2=O)cc1: -13.5
- NC(N)=NS(=O)(=O)c1ccc(N)cc1: -2.93
- CCOC(=O)c1c(C)oc2ccc(O)c(CN3CCCCC3)c12: -3.83
- Cc1ccc(S(=O)(=O)N2CCN(CCO)CC2)cc1-c1nnc2c3ccccc3c(C)nn12: 2.01
- O=C(c1cccnc1)N1CCc2ccccc21: -16.3
- CCN(CC)C(=O)Cn1c(=O)n(Cc2ccccc2Cl)c2c1c(=O)n(C)c(=O)n2C: 4.23
- O=C(O)c1cccc(S(=O)(=O)N2CCOCC2)c1: 3.4
- C=C(c1cccc2ccccc12)P(=O)(O)O: 6.39
- Cc1ccc(CSC2=NCCN2C(=O)C2CC2)cc1: 10.7
- Cc1cc(NC(=O)C23CCC(C)(c4nc5cc(Cl)c(Cl)cc5nc42)C3(C)C)no1 (configuration not stated): 14.6
- Cc1ccc(-n2c(Cc3cccn3C)nnc2SCC(=O)NCc2ccc3c(c2)OCO3)cc1: 5.04
- CCOC(=O)c1[nH]c2ccccc2c1NC(=O)C(CC)CC: 13.9
- CCOC(=O)N1CCN(c2cc3nccnc3cc2F)CC1: 5.61
- C=CCn1c(=O)c2ccccc2n2c(SCC(=O)Nc3cc(C)on3)nnc12: 10.6
- O=C(O)c1oc2ccccc2c1-n1cccc1: -0.995
- C[C@]12CC[C@@H]3c4ccc(O)cc4CC[C@H]3[C@@H]1CC[C@@H]2OC(=O)CCC(=O)O: 0.94
- O=C(NCc1ccco1)c1cccn2c(=O)c3sccc3nc12: -24
